target: HDAC10 (Homo sapiens); test: fluorescence HDAC isoenzyme activity assay; format: biochemical; conditions: read-out: IC50 (nM)^1 / Martinostat
Sequence (Q969S8 whole entry): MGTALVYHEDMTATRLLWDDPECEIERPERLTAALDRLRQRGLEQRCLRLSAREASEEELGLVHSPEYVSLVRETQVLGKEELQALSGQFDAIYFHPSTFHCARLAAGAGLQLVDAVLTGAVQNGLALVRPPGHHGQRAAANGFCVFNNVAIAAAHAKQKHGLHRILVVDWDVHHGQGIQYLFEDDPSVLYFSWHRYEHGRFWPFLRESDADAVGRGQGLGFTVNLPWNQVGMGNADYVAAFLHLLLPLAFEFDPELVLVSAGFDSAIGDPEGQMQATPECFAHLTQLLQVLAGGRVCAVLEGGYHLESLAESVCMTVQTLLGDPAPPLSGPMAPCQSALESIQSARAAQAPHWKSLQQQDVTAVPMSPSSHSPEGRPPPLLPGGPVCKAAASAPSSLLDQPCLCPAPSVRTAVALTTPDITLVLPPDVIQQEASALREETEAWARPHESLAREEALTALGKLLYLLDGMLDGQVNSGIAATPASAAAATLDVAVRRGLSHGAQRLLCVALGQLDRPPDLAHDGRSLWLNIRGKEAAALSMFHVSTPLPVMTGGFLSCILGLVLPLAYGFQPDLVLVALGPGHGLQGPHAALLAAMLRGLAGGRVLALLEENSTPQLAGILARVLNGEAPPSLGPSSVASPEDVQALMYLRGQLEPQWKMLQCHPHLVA
Readout Type: IC50 (nM)
Record the value in nM, omitting the unit from your answer.

# IC50 lookup, item `CN(Cc1ccc(/C=C/C(=O)NO)cc1)CC12CC3CC(CC(C3)C1)C2`
72

====

Target: HDAC11 (Homo sapiens)
Sequence (Q96DB2 1-347): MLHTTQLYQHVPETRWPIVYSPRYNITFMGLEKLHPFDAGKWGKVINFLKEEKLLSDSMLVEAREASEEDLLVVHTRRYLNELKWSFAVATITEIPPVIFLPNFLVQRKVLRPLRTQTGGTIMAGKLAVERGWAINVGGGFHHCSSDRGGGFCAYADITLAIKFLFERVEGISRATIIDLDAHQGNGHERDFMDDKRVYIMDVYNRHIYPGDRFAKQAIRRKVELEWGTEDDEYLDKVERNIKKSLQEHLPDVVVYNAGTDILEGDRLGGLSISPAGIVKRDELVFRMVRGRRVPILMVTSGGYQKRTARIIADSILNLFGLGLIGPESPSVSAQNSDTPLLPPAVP
Test: fluorescence HDAC isoenzyme activity assay
Type: biochemical
Conditions: read-out: IC50 (nM)^1 / Martinostat
Readout Type: IC50 (nM)
Record the value in nM, omitting the unit from your answer.

// fetch HDAC11 (Homo sapiens) IC50 for CN(Cc1ccc(/C=C/C(=O)NO)cc1)CC12CC3CC(CC(C3)C1)C2 [martinostat]
34
